- STUDY_TARGET: ALK(h) (Homo sapiens)
- Sequence (Q9UM73 19-1620): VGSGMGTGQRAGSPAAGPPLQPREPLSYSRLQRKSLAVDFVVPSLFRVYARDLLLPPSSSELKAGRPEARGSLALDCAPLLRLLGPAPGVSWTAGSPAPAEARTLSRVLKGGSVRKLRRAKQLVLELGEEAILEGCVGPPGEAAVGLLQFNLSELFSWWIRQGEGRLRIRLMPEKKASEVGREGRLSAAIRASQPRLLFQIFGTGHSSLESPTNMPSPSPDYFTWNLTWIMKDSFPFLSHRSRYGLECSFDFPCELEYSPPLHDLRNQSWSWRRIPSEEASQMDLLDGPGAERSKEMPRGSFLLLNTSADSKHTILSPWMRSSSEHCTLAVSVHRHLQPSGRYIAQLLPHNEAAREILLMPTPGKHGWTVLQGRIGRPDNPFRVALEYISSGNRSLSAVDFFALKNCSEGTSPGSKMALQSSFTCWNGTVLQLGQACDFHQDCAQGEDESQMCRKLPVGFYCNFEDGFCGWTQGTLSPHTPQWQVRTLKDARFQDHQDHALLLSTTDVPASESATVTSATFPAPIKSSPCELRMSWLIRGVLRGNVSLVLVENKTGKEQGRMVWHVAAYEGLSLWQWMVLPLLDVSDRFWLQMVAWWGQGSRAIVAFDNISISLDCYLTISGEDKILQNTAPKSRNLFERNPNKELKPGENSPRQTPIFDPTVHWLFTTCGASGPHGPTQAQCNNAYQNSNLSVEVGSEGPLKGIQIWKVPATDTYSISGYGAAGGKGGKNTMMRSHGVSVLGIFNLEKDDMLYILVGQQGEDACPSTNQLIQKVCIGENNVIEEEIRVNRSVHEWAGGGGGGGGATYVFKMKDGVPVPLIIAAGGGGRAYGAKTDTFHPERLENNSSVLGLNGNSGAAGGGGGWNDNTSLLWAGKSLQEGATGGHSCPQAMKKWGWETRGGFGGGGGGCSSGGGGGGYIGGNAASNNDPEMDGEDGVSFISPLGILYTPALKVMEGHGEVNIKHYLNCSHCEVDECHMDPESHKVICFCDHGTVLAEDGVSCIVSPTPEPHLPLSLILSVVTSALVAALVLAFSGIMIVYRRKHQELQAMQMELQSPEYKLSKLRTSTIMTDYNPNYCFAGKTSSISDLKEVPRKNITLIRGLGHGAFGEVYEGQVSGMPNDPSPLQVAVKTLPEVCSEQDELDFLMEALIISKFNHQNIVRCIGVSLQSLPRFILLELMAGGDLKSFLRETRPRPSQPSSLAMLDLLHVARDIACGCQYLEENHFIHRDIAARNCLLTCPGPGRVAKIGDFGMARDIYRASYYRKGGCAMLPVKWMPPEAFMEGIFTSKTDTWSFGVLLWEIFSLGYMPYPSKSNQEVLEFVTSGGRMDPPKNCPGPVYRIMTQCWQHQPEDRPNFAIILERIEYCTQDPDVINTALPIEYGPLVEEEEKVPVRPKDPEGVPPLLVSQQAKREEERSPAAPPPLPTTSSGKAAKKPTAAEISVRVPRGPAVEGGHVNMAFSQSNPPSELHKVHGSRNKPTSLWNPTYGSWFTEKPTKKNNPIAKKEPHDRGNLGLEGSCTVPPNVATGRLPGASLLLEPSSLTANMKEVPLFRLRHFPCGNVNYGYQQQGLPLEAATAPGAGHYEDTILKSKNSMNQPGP
pIC50: −log10 of the molar value.
READOUT_NAME: pIC50

Request the reported pIC50 associated with Cc1cc2c(F)c(Oc3ncnc(Nc4ccc(N5C[C@@H](C)N[C@@H](C)C5)cc4)c3C#N)cc(F)c2[nH]1 [Compound 19] < 6.00

----------
- STUDY_TARGET: CYP450 2C9 (Homo sapiens)
- Sequence (P11712 whole entry): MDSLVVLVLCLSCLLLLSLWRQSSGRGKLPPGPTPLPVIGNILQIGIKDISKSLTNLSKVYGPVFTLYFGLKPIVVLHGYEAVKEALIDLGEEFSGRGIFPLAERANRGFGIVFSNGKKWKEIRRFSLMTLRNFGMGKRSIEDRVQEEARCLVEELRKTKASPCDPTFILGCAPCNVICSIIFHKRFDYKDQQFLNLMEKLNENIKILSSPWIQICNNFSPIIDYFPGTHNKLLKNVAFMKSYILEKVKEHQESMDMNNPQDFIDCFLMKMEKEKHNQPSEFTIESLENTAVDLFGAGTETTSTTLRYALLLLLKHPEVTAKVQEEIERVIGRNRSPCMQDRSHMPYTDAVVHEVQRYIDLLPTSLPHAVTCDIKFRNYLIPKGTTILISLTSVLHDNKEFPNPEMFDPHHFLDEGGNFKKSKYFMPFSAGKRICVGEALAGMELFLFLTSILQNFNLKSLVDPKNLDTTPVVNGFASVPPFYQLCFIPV
- ASSAY_SUMMARY: CYP450 inhibition, 2C9
- Type: in vitro ADME
- Source text: Table 9 discloses toxicity data for compound 19 from various toxicity tests well known to those of ordinary skill.
READOUT_NAME: pIC50
pIC50 here is simply -log10 of the concentration when that concentration is written in mol/L.

Request the reported pIC50 associated with Cc1cc2c(F)c(Oc3ncnc(Nc4ccc(N5C[C@@H](C)N[C@@H](C)C5)cc4)c3C#N)cc(F)c2[nH]1 4.48

----------
- Test system: KG1a
- ASSAY_SUMMARY: Inhibition of proliferation (CellTiterblue, 72 hr), KG1a
- Assay type: cell-based, human
- CONDITION_DESCRIPTION: Homo sapiens, KG-1a; 72 hr
Decision: GI50 beneath 2 nM gives label 1; GI50 meeting or exceeding 2 nM gives label 0.

CCN1CCN(c2cccc(Nc3ncnc(Oc4ccc5[nH]c(C)cc5c4F)c3C#N)c2)CC1 = label 0
Cc1cc2c(F)c(Oc3ncnc(Nc4ccc(N5C[C@@H](C)N[C@@H](C)C5)nc4)c3C#N)cc(F)c2[nH]1 = label 0
Cc1cc2c(F)c(Oc3ncnc(Nc4ccc(N5CCNCC5)cc4)c3C#N)cc(F)c2[nH]1 = label 1
Cc1cc2c(F)c(Oc3ncnc(Nc4ccc(N5C[C@@H](C)N[C@@H](C)C5)c(F)c4)c3C#N)ccc2[nH]1 = label 0
COc1cc(N2CCN(C)CC2)ccc1Nc1ncnc(Oc2ccc3[nH]c(C)cc3c2F)c1C#N = label 0
Cc1cc2c(F)c(Oc3ncnc(Nc4ccc(N5CCCC5=O)cc4)c3C#N)cc(F)c2[nH]1 = label 0
Cc1cc2c(F)c(Oc3ncnc(Nc4ccc(N5[C@H](C)CNC[C@@H]5C)cc4)c3C#N)cc(F)c2[nH]1 = label 1
C=CC(=O)Nc1ccc(Nc2ncnc(Oc3cc(F)c4[nH]c(C)cc4c3F)c2C#N)cc1 = label 0
CCN1[C@H](C)CN(c2ccc(Nc3ncnc(Oc4cc(F)c5[nH]c(C)cc5c4F)c3C#N)cc2)C[C@@H]1C = label 1
Cc1cc2c(F)c(Oc3ncnc(Nc4ccc(N5C[C@@H](C)N[C@@H](C)C5)cc4)c3C#N)cc(F)c2[nH]1 = label 1

Item Cc1cc2c(F)c(Oc3ncnc(Nc4ccc(N5CCN[C@@H](C)C5)cc4)c3C#N)cc(F)c2[nH]1 : GI50 beneath 2 nM, strictly? label 1

Item Cc1cc2c(F)c(Oc3ncnc(Nc4ccc(NC(=O)CN5CCOCC5)cc4)c3C#N)cc(F)c2[nH]1 : GI50 beneath 2 nM, strictly? label 0

Item C/C=C/C(=O)Nc1ccc(Nc2ncnc(Oc3cc(F)c4[nH]c(C)cc4c3F)c2C#N)cc1 : GI50 beneath 2 nM, strictly? label 0

Item Cc1cc2c(F)c(Oc3ncnc(Nc4ccc(N5CCN6CCCC6C5)cc4)c3C#N)cc(F)c2[nH]1 (centres unmarked) : GI50 beneath 2 nM, strictly? label 0

Origin of measurements: patent US20180215734A1
